testTarget: T1, YWHAZ 1-245 14-3-3 (domain begin residue: 1, domain end residue: 245), P63104
T1 chain: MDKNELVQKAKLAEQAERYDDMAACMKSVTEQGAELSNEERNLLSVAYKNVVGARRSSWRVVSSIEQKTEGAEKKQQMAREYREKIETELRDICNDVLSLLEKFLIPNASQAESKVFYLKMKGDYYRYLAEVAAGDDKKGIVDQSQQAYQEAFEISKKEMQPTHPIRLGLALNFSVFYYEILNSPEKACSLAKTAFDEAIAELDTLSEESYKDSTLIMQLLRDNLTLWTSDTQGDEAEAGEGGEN
testName: phage ELISA signal ratio (GST-PRM binding over GST background); higher = stronger binding of peptide-phage to the PRM
endpointName: phage ELISA signal ratio
Answers are plain numbers.

>>> df
             binder  reportedmeasurement
0  VKSYYTTWHVQWLMDW                 6.31
1  QNIEFVWWHKEWLENQ                 6.38
2  MPEYWVDWHMEYVQEM                 28.1

We next turn to a different binder, shown below.
Tell me its phage ELISA signal ratio given EHPHYWTPWHVDYMLR as the entry.
4.41
